Listing: pIC50 of selected compounds
Target: human FAAH (Homo sapiens, UniProt O00519)
Construct: expressed in transfected cells; host or cells: H4 cells (H4-FAAH, Geneticin-selected); crude membrane homogenates
Sequence (O00519 1-579): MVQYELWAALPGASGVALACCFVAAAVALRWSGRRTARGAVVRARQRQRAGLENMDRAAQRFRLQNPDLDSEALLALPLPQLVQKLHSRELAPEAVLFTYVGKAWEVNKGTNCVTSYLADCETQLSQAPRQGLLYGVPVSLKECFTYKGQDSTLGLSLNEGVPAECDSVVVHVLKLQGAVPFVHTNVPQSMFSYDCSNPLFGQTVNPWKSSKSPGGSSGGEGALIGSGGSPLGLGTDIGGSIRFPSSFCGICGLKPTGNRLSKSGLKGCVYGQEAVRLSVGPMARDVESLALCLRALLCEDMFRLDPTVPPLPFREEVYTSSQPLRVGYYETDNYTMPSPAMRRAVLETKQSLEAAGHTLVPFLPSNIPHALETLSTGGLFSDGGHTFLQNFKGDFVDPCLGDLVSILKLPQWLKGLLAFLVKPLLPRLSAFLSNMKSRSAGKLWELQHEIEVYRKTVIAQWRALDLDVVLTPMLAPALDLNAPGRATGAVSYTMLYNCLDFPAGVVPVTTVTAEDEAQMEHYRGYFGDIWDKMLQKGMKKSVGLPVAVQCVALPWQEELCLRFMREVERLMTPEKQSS
Experiment: FAAH activity in membrane homogenates of H4-FAAH cells, [3H]-anandamide hydrolysis
Assay type: biochemical
Settings: H4-FAAH cell membranes, 10 μM anandamide, room temperature, one hour; read-out: IC50
Protocol: Homogenates of crude membranes were prepared from H4 cells that express transfected human FAAH (H4-FAAH cells). […] Activity of FAAH was measured using a modification of the method described by Omeir et al., 1995 (Life Sci 56:1999, 1995). […] An aliquot of the aqueous phase, containing [^3H]-ethanolamine was withdrawn and counted by scintillation spectroscopy. […] IC50 values were determined using a four-parameter logistic equation for dose-response curves.
pIC50: −log10 of the molar value.

compound="CCCCOc1ccc(CNC(=O)Oc2cccc3ccccc23)cc1 [Example 115]" measured_result="7.00 to 8.00"

Request: Output reported pIC50 of the compound CCCCOc1ccc(C(CC)NC(=O)Oc2ccc(C(C)C)cc2)cc1 (stereo not shown) [Example 129] on human FAAH (Homo sapiens, UniProt O00519).
Response: 6.30 to 7.00

* * *

Target: human FAAH (Homo sapiens, UniProt O00519)
Construct: expressed in transfected cells; host or cells: H4 cells (H4-FAAH, Geneticin-selected); crude membrane homogenates
Sequence (O00519 1-579): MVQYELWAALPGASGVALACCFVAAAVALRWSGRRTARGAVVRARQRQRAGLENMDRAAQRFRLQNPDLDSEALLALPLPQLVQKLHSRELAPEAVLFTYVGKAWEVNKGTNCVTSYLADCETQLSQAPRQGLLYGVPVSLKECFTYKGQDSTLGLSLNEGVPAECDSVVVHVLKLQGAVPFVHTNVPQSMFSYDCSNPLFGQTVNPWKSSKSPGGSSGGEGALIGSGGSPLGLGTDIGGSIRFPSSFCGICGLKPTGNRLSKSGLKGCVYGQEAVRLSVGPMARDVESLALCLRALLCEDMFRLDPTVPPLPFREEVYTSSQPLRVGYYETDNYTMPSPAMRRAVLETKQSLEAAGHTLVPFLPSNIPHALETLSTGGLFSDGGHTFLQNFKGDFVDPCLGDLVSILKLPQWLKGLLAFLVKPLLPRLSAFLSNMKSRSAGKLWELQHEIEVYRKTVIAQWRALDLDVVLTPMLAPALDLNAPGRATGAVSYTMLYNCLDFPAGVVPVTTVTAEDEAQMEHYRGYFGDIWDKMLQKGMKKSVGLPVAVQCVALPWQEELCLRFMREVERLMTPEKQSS
Experiment: FAAH activity in membrane homogenates of H4-FAAH cells, [3H]-anandamide hydrolysis
Format: biochemical
Conditions: H4-FAAH cell membranes, 10 μM anandamide, room temperature, one hour; read-out: IC50
Measured Metric: IC50

Sample answers from the record:
molecule="CCCCCCCCCCCCOc1ccc(NC(=O)Oc2ccccc2F)cc1 [Example 106]" system="human FAAH (Homo sapiens, UniProt O00519)" measured_metric=IC50 measured_result="10 to 100 nM"
molecule="O=C(Nc1ccc(OCCc2ccccc2)cc1)O/N=C/c1ccc(F)cc1 [Example 82]" system="human FAAH (Homo sapiens, UniProt O00519)" measured_metric=IC50 measured_result="< 10 nM"
molecule="CCCCCCCCCOc1ccc(NC(=O)ON=C(C)C)cc1 [Example 31]" system="human FAAH (Homo sapiens, UniProt O00519)" measured_metric=IC50 measured_result="< 10 nM"

Request: Given the molecule CCc1ccc(-c2ccc(NC(=O)O/N=C/c3cccnc3)cc2)cc1 [Example 70] , write its reported IC50.
Response: 10 to 100 nM

Request: Assign IC50 to the following record: CCCCCCCCC(=O)Nc1ccc(NC(=O)O/N=C/c2ccc(F)cc2F)cc1 [Example 139]
Response: < 10 nM

Request: Name the recorded IC50 of the molecule listed here: CCCCCCOc1ccc(NC(=O)O/N=C/c2ccccc2)cc1 [Example 23]
Response: < 10 nM

* * *

target: human FAAH (Homo sapiens, UniProt O00519); construct: expressed in transfected cells; host or cells: H4 cells (H4-FAAH, Geneticin-selected); crude membrane homogenates; experiment: FAAH activity in membrane homogenates of H4-FAAH cells, [3H]-anandamide hydrolysis; format: biochemical
Measured Metric: IC50

molecule="CCCCCOc1ccc(NC(=O)O/N=C/c2ccccc2)cc1 [Example 11]" system="human FAAH (Homo sapiens, UniProt O00519)" measured_result="< 0.01 µM"
molecule="CCCCOc1cccc(NC(=O)ON=C(C)C)c1 [Example 66]" system="human FAAH (Homo sapiens, UniProt O00519)" measured_result="> 0.5 µM"
molecule="CCCCCCCCCCCOc1ccc(NC(=O)Oc2ccccc2)cc1 [Example 103]" system="human FAAH (Homo sapiens, UniProt O00519)" measured_result="< 0.01 µM"
molecule="CCc1ccc(-c2ccc(NC(=O)Oc3ccccc3F)cc2)cc1 [Example 124]" system="human FAAH (Homo sapiens, UniProt O00519)" measured_result="> 0.5 µM"
molecule="CCCCCCCCCOc1ccc(NC(=O)O/N=C/c2cccnc2)cc1 [Example 4]" system="human FAAH (Homo sapiens, UniProt O00519)" measured_result="< 0.01 µM"

Request: Please list IC50 recorded for the molecule CCCCCCCCCCCOc1ccc(NC(=O)Oc2ccccc2F)cc1 [Example 104]
Response: 0.01 to 0.1 µM

Request: Identify measured IC50 corresponding to CCCCCCCCCCOc1ccc(NC(=O)Oc2ccccc2)cc1 [Example 101]
Response: < 0.01 µM

Request: State, in one line, measured IC50 of CCCCCOc1ccc(NC(=O)O/N=C/c2ccc(F)cc2)cc1 [Example 14]
Response: < 0.01 µM

* * *

A collection of compounds and their measured pIC50
Target: human FAAH (Homo sapiens, UniProt O00519)
Construct: expressed in transfected cells; host or cells: H4 cells (H4-FAAH, Geneticin-selected); crude membrane homogenates
Sequence (O00519 1-579): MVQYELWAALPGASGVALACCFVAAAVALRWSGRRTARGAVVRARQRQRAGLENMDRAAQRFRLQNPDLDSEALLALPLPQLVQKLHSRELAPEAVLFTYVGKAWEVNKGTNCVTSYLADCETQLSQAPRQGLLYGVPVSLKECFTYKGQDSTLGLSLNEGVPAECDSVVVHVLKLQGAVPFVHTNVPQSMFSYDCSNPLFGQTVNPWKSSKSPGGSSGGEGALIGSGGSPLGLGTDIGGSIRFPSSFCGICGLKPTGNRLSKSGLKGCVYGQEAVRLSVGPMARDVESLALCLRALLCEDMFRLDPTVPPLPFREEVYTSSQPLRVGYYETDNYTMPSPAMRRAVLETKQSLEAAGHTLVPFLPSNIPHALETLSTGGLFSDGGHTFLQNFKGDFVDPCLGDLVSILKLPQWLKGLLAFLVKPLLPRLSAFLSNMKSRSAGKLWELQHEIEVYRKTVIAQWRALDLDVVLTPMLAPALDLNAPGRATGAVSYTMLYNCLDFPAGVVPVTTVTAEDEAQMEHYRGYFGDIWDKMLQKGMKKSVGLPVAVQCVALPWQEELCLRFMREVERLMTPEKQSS
Assay: FAAH activity in membrane homogenates of H4-FAAH cells, [3H]-anandamide hydrolysis
Assay type: biochemical
Conditions: H4-FAAH cell membranes, 10 μM anandamide, room temperature, one hour; read-out: IC50
pIC50: −log10 of the molar value.

Request: Return pIC50 (reported value) for this compound: CCCOc1ccc(NC(=O)O/N=C/c2ccccc2)cc1
Response: > 8.00

Request: Assign pIC50 to the following record: CCCCOc1ccc(CNC(=O)O/N=C/c2cccnc2)cc1
Response: 7.00 to 8.00

Value source: patent US6949574B2
